biological target: UniProtKB Q06187; test: BTK degradation in MOLM-14 cells (western blot); type: cell-based; set-up: endogenous in cells; host or cells: MOLM-14; details: MOLM-14 cells, 200 nM, 24 h incubation
Sequence (Q06187 whole entry): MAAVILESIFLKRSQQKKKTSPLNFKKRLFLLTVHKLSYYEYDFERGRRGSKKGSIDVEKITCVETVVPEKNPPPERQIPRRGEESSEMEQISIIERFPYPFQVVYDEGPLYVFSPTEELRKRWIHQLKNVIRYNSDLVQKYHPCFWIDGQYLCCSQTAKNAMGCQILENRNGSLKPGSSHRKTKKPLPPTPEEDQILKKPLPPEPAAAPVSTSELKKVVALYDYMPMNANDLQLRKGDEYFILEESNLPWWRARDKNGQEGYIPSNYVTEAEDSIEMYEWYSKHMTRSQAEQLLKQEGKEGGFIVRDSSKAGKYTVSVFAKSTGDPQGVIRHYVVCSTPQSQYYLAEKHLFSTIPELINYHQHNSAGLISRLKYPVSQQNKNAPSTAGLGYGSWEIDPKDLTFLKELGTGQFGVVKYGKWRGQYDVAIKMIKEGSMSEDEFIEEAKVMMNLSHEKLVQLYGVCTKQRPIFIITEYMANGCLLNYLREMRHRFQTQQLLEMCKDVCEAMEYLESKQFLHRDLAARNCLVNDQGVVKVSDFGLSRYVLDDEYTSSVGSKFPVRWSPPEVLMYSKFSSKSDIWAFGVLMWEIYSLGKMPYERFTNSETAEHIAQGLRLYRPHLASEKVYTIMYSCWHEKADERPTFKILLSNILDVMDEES
A collection of compounds and their measured Degradation at 200 nM (percentage of BTK degradation)
I only need the number, in %, no unit after it.

Worked examples, 3 compounds total:
CN(CCOCCOCCNC(=O)CNc1cccc2c1C(=O)N(C1CCC(=O)NC1=O)C2=O)C(C)(C)C=C(C#N)C(=O)N1CCC[C@@H](n2nc(-c3ccc(Oc4ccccc4)cc3)c3c(N)ncnc32)C1 (some centres unmarked): 43
CN(CCCCNC(=O)CNc1cccc2c1C(=O)N(C1CCC(=O)NC1=O)C2=O)C(C)(C)C=C(C#N)C(=O)N1CCC[C@@H](n2nc(-c3ccc(Oc4ccccc4)cc3)c3c(N)ncnc32)C1 (some centres unmarked): 49
CN(CCOCCNC(=O)CNc1cccc2c1C(=O)N(C1CCC(=O)NC1=O)C2=O)C(C)(C)C=C(C#N)C(=O)N1CCC[C@@H](n2nc(-c3ccc(Oc4ccccc4)cc3)c3c(N)ncnc32)C1 (some centres unmarked): 39

Lab note: next compound to report on.
// assay UniProtKB Q06187, entry CN(CCCCNc1cccc2c1C(=O)N(C1CCC(=O)NC1=O)C2=O)C(C)(C)C=C(C#N)C(=O)N1CCCC(n2nc(-c3ccc(Oc4ccccc4)cc3)c3c(N)ncnc32)C1 (centres unmarked) , Degradation at 200 nM (percentage of BTK degradation) value = 6
